Target: MAO-B (Rattus norvegicus, UniProt P19643)
Construct: mitochondria prepared from the liver of rats; from tissue; host or cells: rat liver mitochondria
Sequence (P19643 whole entry): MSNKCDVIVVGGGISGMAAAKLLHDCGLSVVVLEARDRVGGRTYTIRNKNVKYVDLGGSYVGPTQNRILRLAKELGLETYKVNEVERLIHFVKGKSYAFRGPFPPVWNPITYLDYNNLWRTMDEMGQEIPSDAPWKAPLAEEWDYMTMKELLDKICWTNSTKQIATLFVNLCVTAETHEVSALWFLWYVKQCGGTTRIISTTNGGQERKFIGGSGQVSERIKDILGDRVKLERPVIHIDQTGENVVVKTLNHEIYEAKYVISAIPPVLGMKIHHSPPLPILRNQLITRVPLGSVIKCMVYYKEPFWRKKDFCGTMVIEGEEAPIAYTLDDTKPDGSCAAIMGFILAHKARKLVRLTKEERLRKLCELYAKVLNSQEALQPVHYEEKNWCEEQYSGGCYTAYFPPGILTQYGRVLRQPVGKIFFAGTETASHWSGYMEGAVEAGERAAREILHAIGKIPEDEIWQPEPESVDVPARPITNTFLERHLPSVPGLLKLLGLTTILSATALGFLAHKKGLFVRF
Experiment: In vitro inhibition of monoamine oxidase B (oxygen electrode, rat liver mitochondria, substrate benzylamine)
Format: biochemical
Details: rat liver mitochondria, 37° C., preincubated, substrate benzylamine (BA); read-out: IC50 MAO-B
pIC50: −log10 of the molar value.
ENDPOINT NAME: pIC50

1: CCc1nc(-c2ccc(OCCn3ccnc3)cc2)no1 [Example 18]
2: c1cn(CCCOc2ccc(-c3noc(C4CC4)n3)cc2)cn1 [Example 4]
3: CCc1nc(-c2ccc(OCCCn3cnc4ccccc43)cc2)no1 [Example 7]
stdin: Put the above compounds in order of rising pIC50, beginning with the smallest. Kindly provide the labels arranged according to the requested ordering.
stdout: 3, 1, 2

I: CCCc1nc(-c2ccc(OCCCn3ccnc3)cc2)no1 [Example 3]
II: Cc1nc(-c2ccc(OCCCn3ccnc3)cc2)no1 [Example 24]
stdin: Pick one, I or II : lowest reported pIC50. When you have decided, please share the label of that item.
stdout: II

----------
Target: MAO-B (Rattus norvegicus, UniProt P19643)
Construct: mitochondria prepared from the liver of rats; from tissue; host or cells: rat liver mitochondria
Test: In vitro inhibition of monoamine oxidase B (oxygen electrode, rat liver mitochondria, substrate benzylamine)
Format: biochemical
Conditions: ratio of IC50 values MAO-A/MAO-B
ENDPOINT NAME: MAO-A/MAO-B

MOLECULE	SYSTEM TESTED	ENDPOINT NAME	ASSAY VALUE
ClC(Cl)(Cl)c1nc(-c2ccc(OCc3ccccc3)cc2)no1 [Example 20]	MAO-B (Rattus norvegicus, UniProt P19643)	MAO-A/MAO-B	11

1: ClC(Cl)(Cl)c1nc(-c2ccc(OCCCn3ccnc3)cc2)no1 [Example 2]
2: Cc1nc(-c2ccc(OCCCn3ccnc3)cc2)no1 [Example 24]
3: FC(F)(F)C(F)(F)c1nc(-c2ccc(OCCCn3ccnc3)cc2)no1 [Example 22]
4: c1ccc(-c2nc(-c3ccc(OCCCn4ccnc4)cc3)no2)cc1 [Example 5]
stdin: Please produce an ascending ranking of these molecules based on MAO-A/MAO-B. Write the labels, ordered according to the request.
stdout: 4, 2, 3, 1

----------
Molecular target: MAO-B (Rattus norvegicus)
Construct: mitochondria prepared from the liver of rats; from tissue; host or cells: rat liver mitochondria
Assay: In vitro inhibition of monoamine oxidase B (oxygen electrode, rat liver mitochondria, substrate benzylamine)
Assay type: biochemical
Conditions: ratio of IC50 values MAO-A/MAO-B
ENDPOINT NAME: MAO-A/MAO-B

Please review the following examples before continuing.
RECORD SMILES	MAO-A/MAO-B
Cc1nc(-c2ccc(OCc3ccccc3)cc2)no1	10
CCc1nc(-c2ccc(OCCCN3CCN(C)CC3)cc2)no1	1
CCCOc1ccc(-c2noc(CC)n2)cc1	4.8
CCc1nc(-c2ccc(OCCn3ccnc3)cc2)no1	1.5
CCCN(CCC)CCCOc1ccc(-c2noc(C)n2)cc1	100
O=C1CCCN1CCCOc1ccc(-c2noc(-c3ccccc3)n2)cc1	1
CCc1nc(-c2ccc(OCCCN3CCCCC3)cc2)no1	1
FC(F)(F)C(F)(F)C(F)(F)c1nc(-c2ccc(OCCCn3ccnc3)cc2)no1	21
CCCN(CCC)CCCOc1ccc(-c2noc(-c3ccccc3)n2)cc1	2
FC(F)(F)c1nc(-c2ccc(OCCCn3ccnc3)cc2)no1	6700

A: Cc1nc(-c2ccc(OCc3ccncc3)cc2)no1
B: Cc1nc(-c2ccc(OCc3cccc(Cl)c3)cc2)no1
stdin: Which record would sort first by descending MAO-A/MAO-B, A or B ? Label of pick, please.
stdout: B
(B: 67, A: 6.4)
